Hey, just so you know, these numbers are from the supplement of paper PMC12350171.

- Test system: Shigella flexneri
- test: growth AUC normalised to DMSO control (fraction of control); higher = less growth inhibition, active = hit call of the paper
- conditionsUsed: 20 µM
Counter-ions that a name gives are not always drawn.
The entries below are paired with their reported growth AUC normalised to DMSO control.
Response field accepts a number only; no unit should be typed.

Some entries whose results are on file:
compound: CN(C)CCC(c1ccc(Br)cc1)c1ccccn1 (stereo not drawn) [Brompheniramine maleate]
targetSystem: Shigella flexneri
experimentalValue: 1
--
compound: COc1ccccc1OCC(O)CN1CCN(CC(=O)Nc2c(C)cccc2C)CC1 (stereo not drawn)
targetSystem: Shigella flexneri
experimentalValue: 1
--
compound: CC(=O)OCC(=O)[C@@]1(O)CC[C@H]2[C@@H]3CCC4=CC(=O)CC[C@]4(C)[C@@]3(F)[C@@H](O)C[C@@]21C [Fludrocortisone acetate]
targetSystem: Shigella flexneri
experimentalValue: 0.988
--
compound: O=C(O)CN(CCN(CC(=O)O)CC(=O)O)CCN(CC(=O)O)CC(=O)O
targetSystem: Shigella flexneri
experimentalValue: 1.01
--
compound: Nc1nc2c(ncn2COC(CO)CO)c(=O)[nH]1
targetSystem: Shigella flexneri
experimentalValue: 0.996
--
compound: CCN(CC)CCNC(=O)c1cc(Br)c(N)cc1OC [Bromopride]
targetSystem: Shigella flexneri
experimentalValue: 1.01

## Input What growth AUC normalised to DMSO control appears in the records for this compound with Shigella flexneri? `CC(=O)Oc1cccc2c1C(=O)c1c(OC(C)=O)cc(C(=O)O)cc1C2=O`
## Output 0.997

## Input What growth AUC normalised to DMSO control appears in the records for this compound with Shigella flexneri? CCN(Cc1ccncc1)C(=O)C(CO)c1ccccc1 (stereo not drawn) [Tropicamide]
## Output 0.987

## Input What growth AUC normalised to DMSO control appears in the records for this compound with Shigella flexneri? CC(=O)c1ccc2c(c1)N(CCCN(C)C)c1ccccc1S2 [Acetopromazine maleate salt]
## Output 1

## Input What growth AUC normalised to DMSO control appears in the records for this compound with Shigella flexneri? COc1ccccc1OCCNCC(O)COc1cccc2[nH]c3ccccc3c12 (stereo not drawn)
## Output 1

## Input What growth AUC normalised to DMSO control appears in the records for this compound with Shigella flexneri? `O=C(CCCN1CCC(O)(c2ccc(Br)cc2)CC1)c1ccc(F)cc1`
## Output 0.984

## Input What growth AUC normalised to DMSO control appears in the records for this compound with Shigella flexneri? CN(C)CCCC1(c2ccc(F)cc2)OCc2cc(C#N)ccc21 (stereo not drawn) [Citalopram hydrobromide]
## Output 0.994

## Input What growth AUC normalised to DMSO control appears in the records for this compound with Shigella flexneri? Clc1cccc(Cl)c1NC1=NCCN1 [Clonidine hydrochloride]
## Output 1.02

## Input What growth AUC normalised to DMSO control appears in the records for this compound with Shigella flexneri? `C[C@]12C=CC(=O)C=C1CC[C@@H]1[C@@H]2C(=O)C[C@@]2(C)[C@H]1CC[C@]2(O)C(=O)CO`
## Output 0.994

## Input What growth AUC normalised to DMSO control appears in the records for this compound with Shigella flexneri? Cc1c(Cl)cccc1Nc1ncccc1C(=O)O [Clonixin lysinate]
## Output 0.989

## Input What growth AUC normalised to DMSO control appears in the records for this compound with Shigella flexneri? CN(C)C(=N)NC(=N)N [Metformin hydrochloride]
## Output 1.01

## Input What growth AUC normalised to DMSO control appears in the records for this compound with Shigella flexneri? C[n+]1ccccc1/C=N/O [Pralidoxime chloride]
## Output 1.01

## Input What growth AUC normalised to DMSO control appears in the records for this compound with Shigella flexneri? NS(=O)(=O)c1cc2c(cc1Cl)N=CNS2(=O)=O [Chlorothiazide]
## Output 0.998
